target: human D2 dopamine receptor (Homo sapiens); construct: expressed in transfected cells; host or cells: HEK-293 EBNA cells (transient transfection; membrane preparation); assay: Radioligand binding to cloned human D2 receptor ([3H]-spiperone); details: third value of D3/5HT2A/D2; membranes of transfected HEK-293 EBNA cells, 0.7 nM [3H]-spiperone, 1 h at RT
Sequence (P14416 whole entry): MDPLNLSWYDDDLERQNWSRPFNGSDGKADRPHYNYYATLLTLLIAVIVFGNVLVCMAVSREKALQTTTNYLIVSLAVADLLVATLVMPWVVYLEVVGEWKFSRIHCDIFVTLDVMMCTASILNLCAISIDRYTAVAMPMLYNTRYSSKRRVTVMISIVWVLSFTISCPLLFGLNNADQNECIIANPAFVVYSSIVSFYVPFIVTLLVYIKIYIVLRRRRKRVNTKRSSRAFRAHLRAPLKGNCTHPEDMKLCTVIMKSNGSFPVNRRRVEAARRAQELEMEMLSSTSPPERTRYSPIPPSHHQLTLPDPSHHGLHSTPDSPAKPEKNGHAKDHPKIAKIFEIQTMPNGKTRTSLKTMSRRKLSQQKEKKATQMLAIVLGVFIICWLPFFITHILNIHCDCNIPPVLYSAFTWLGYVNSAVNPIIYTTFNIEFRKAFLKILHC
Endpoint name: Ki (nM)
Please state the figure in nM; there is no need to write the unit.

Query: // returns reported Ki for input O=C(N[C@H]1CC[C@H](CCN2CCC(Oc3ccc(F)cc3Cl)CC2)CC1)c1ccnc2ccccc12
Response: 321

Query: // returns reported Ki for input O=C(Nc1ccc(Cl)cc1)N[C@H]1CC[C@H](CCN2CCC(Oc3ccc(F)cc3)CC2)CC1
Response: 574

Query: // returns reported Ki for input Cc1ccc(NC(=O)N[C@H]2CC[C@H](CCN3CCC(Oc4ccc(F)cc4Cl)CC3)CC2)cc1
Response: 697

Query: // returns reported Ki for input O=C(N[C@H]1CC[C@H](CCN2CCC(Oc3cccc(Cl)c3Cl)CC2)CC1)c1ccnc2ccccc12
Response: 319

Query: // returns reported Ki for input CC(=O)N[C@H]1CC[C@H](CCN2CCC(Oc3ccc(F)cc3Cl)CC2)CC1
Response: 683

Query: // returns reported Ki for input Cc1nc(-c2cccc(C(=O)N[C@H]3CC[C@H](CCN4CCC(Oc5ccc(F)cc5Cl)CC4)CC3)c2)no1
Response: 553

Query: // returns reported Ki for input CC(=O)N[C@H]1CC[C@H](CCN2CCC(Oc3ccc(Cl)cc3C#N)CC2)CC1
Response: 3320

Query: // returns reported Ki for input CCC(=O)N[C@H]1CC[C@H](CCN2CCC(Oc3ccc(F)cc3Cl)CC2)CC1
Response: 604

Query: // returns reported Ki for input O=C(N[C@H]1CC[C@H](CCN2CCC(Oc3ccc(F)cc3F)CC2)CC1)c1ccnc2ccccc12
Response: 453

Query: // returns reported Ki for input COCCC(=O)N[C@H]1CC[C@H](CCN2CCC(Oc3ccc(F)cc3Cl)CC2)CC1
Response: 790

Query: // returns reported Ki for input CC(=O)N[C@H]1CC[C@H](CCN2CCC(Oc3ccc(F)cc3)CC2)CC1
Response: 843

Query: // returns reported Ki for input O=C(N[C@H]1CC[C@H](CCN2CCC(Oc3ccc(F)cc3Cl)CC2)CC1)C1CCOCC1
Response: 556

Query: // returns reported Ki for input Cc1ccc(NC(=O)N[C@H]2CC[C@H](CCN3CCC(Oc4ccc(F)cc4)CC3)CC2)cc1
Response: 592

Query: // returns reported Ki for input COCCC(=O)N[C@H]1CC[C@H](CCN2CCC(Oc3ccc(F)cc3)CC2)CC1
Response: 1470

Query: // returns reported Ki for input O=C(N[C@H]1CC[C@H](CCN2CCC(Oc3cc(F)c(F)cc3F)CC2)CC1)C1CCOCC1
Response: 638

Query: // returns reported Ki for input O=C(N[C@H]1CC[C@H](CCN2CCC(Oc3ccncc3)CC2)CC1)c1ccnc2ccccc12
Response: 3000

----------
Molecular target: human 5-HT2A serotonin receptor (Homo sapiens)
Construct: expressed in transfected cells; host or cells: HEK-293 EBNA cells (transient transfection; membrane preparation)
Sequence (P28223 whole entry): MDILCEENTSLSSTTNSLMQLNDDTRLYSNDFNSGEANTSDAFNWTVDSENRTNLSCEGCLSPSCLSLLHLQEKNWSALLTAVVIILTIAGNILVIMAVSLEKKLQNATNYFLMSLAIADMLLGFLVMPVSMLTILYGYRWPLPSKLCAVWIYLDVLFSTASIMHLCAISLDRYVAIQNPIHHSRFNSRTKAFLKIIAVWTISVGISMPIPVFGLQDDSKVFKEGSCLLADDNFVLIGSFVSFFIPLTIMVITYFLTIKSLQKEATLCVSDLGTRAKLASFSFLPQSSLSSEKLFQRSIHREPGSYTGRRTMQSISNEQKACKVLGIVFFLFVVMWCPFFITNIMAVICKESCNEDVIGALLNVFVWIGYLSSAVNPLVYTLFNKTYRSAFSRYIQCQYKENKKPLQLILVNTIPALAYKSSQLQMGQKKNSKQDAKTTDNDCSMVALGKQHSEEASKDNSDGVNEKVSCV
Experiment: Radioligand binding to cloned human 5-HT2A receptor ([3H]-ketanserin)
Details: second value of D3/5HT2A/D2; membranes of transfected HEK-293 EBNA cells, 1.1 nM [3H]-ketanserin, 1 h at RT
Method: The ability of compounds of the present invention to bind to the 5-HT2A, D3 and D2 receptors was determined using radioligand binding to cloned receptors selectively expressed in HEK-293 EBNA cells. Membrane Preparation for Human D2, Human D3 and Human 5-HT2A Receptors […] The binding affinity (Ki) of the compounds was determined using radioligand binding. […] The nonspecific binding was determined with equally composed reaction mixtures in the presence of 10 μM unlabelled spiperone. […]
Endpoint name: Ki (nM)
Please state the figure in nM; there is no need to write the unit.

Query: // returns reported Ki for input CCC(=O)N[C@H]1CC[C@H](CCN2CCC(Oc3ccc(F)cc3Cl)CC2)CC1
Response: 2

Query: // returns reported Ki for input CC(=O)N[C@H]1CC[C@H](CCN2CCC(Oc3ccc(F)cc3)CC2)CC1
Response: 31

Query: // returns reported Ki for input O=C(N[C@H]1CC[C@H](CCN2CCC(Oc3ccc(F)cc3Cl)CC2)CC1)C1CCOCC1
Response: 2

Query: // returns reported Ki for input COCCC(=O)N[C@H]1CC[C@H](CCN2CCC(Oc3ccc(F)cc3Cl)CC2)CC1
Response: 3

Query: // returns reported Ki for input O=C(N[C@H]1CC[C@H](CCN2CCC(Oc3cc(F)c(F)cc3F)CC2)CC1)C1CCOCC1
Response: 36

Query: // returns reported Ki for input CC(=O)N[C@H]1CC[C@H](CCN2CCC(Oc3ccc(Cl)cc3C#N)CC2)CC1
Response: 43

Query: // returns reported Ki for input O=C(N[C@H]1CC[C@H](CCN2CCC(Oc3ccc(F)cc3F)CC2)CC1)c1ccnc2ccccc12
Response: 3

Query: // returns reported Ki for input O=C(N[C@H]1CC[C@H](CCN2CCC(Oc3ccncc3)CC2)CC1)c1ccnc2ccccc12
Response: 60

----------
target: human D3 dopamine receptor (Homo sapiens, UniProt P35462); construct: expressed in transfected cells; host or cells: HEK-293 EBNA cells (transient transfection; membrane preparation); experiment: Radioligand binding to cloned human D3 receptor ([3H]-spiperone); details: first value of D3/5HT2A/D2; membranes of transfected HEK-293 EBNA cells, 0.5 nM [3H]-spiperone, 1 h at RT
Sequence (P35462 whole entry): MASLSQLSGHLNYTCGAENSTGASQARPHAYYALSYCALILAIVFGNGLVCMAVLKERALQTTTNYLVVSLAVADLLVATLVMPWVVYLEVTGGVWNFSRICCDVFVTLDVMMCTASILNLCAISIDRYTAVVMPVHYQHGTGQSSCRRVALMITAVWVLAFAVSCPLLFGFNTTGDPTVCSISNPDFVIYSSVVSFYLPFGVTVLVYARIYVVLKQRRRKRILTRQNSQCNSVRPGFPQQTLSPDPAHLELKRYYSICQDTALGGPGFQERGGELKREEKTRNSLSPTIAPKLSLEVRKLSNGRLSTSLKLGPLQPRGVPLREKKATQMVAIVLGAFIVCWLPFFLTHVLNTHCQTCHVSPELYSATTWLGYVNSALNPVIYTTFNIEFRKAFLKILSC
Record form. Attribute: Ki. Fill in for each entry.
Please state the figure in nM; there is no need to write the unit.

Query: // returns reported Ki for input Cc1ccc(NC(=O)N[C@H]2CC[C@H](CCN3CCC(Oc4ccc(F)cc4Cl)CC3)CC2)cc1 [Example 21]
Response: 3

Query: // returns reported Ki for input Cc1nc(-c2cccc(C(=O)N[C@H]3CC[C@H](CCN4CCC(Oc5ccc(F)cc5Cl)CC4)CC3)c2)no1 [Example 16]
Response: 11

Query: // returns reported Ki for input CC(=O)N[C@H]1CC[C@H](CCN2CCC(Oc3ccc(Cl)cc3C#N)CC2)CC1 [Example 62]
Response: 100

Query: // returns reported Ki for input Cc1ccc(NC(=O)N[C@H]2CC[C@H](CCN3CCC(Oc4ccc(F)cc4)CC3)CC2)cc1 [Example 10]
Response: 16

----------
target: human 5-HT2A serotonin receptor (Homo sapiens); construct: expressed in transfected cells; host or cells: HEK-293 EBNA cells (transient transfection; membrane preparation); assay: Radioligand binding to cloned human 5-HT2A receptor ([3H]-ketanserin); conditions: second value of D3/5HT2A/D2; membranes of transfected HEK-293 EBNA cells, 1.1 nM [3H]-ketanserin, 1 h at RT
Record form. Attribute: Ki. Fill in for each entry.
Please state the figure in nM; there is no need to write the unit.

Query: // returns reported Ki for input O=C(Nc1ccc(Cl)cc1)N[C@H]1CC[C@H](CCN2CCC(Oc3ccc(F)cc3)CC2)CC1
Response: 13

Query: // returns reported Ki for input O=C(N[C@H]1CC[C@H](CCN2CCC(Oc3cccc(Cl)c3Cl)CC2)CC1)c1ccnc2ccccc12
Response: 9

Query: // returns reported Ki for input O=C(N[C@H]1CC[C@H](CCN2CCC(Oc3ccc(F)cc3Cl)CC2)CC1)c1ccnc2ccccc12
Response: 2

Query: // returns reported Ki for input CC(=O)N[C@H]1CC[C@H](CCN2CCC(Oc3ccc(F)cc3Cl)CC2)CC1
Response: 3

Query: // returns reported Ki for input COCCC(=O)N[C@H]1CC[C@H](CCN2CCC(Oc3ccc(F)cc3)CC2)CC1
Response: 22

Query: // returns reported Ki for input Cc1nc(-c2cccc(C(=O)N[C@H]3CC[C@H](CCN4CCC(Oc5ccc(F)cc5Cl)CC4)CC3)c2)no1
Response: 5

Query: // returns reported Ki for input Cc1ccc(NC(=O)N[C@H]2CC[C@H](CCN3CCC(Oc4ccc(F)cc4Cl)CC3)CC2)cc1
Response: 2

Query: // returns reported Ki for input Cc1ccc(NC(=O)N[C@H]2CC[C@H](CCN3CCC(Oc4ccc(F)cc4)CC3)CC2)cc1
Response: 22

----------
Record form. Attribute: Ki. Fill in for each entry.
molecular target: human D3 dopamine receptor (Homo sapiens); construct: expressed in transfected cells; host or cells: HEK-293 EBNA cells (transient transfection; membrane preparation); test: Radioligand binding to cloned human D3 receptor ([3H]-spiperone); conditions: first value of D3/5HT2A/D2; membranes of transfected HEK-293 EBNA cells, 0.5 nM [3H]-spiperone, 1 h at RT
Please state the figure in nM; there is no need to write the unit.

Query: // returns reported Ki for input O=C(N[C@H]1CC[C@H](CCN2CCC(Oc3cc(F)c(F)cc3F)CC2)CC1)C1CCOCC1 [Example 51]
Response: 29

Query: // returns reported Ki for input O=C(N[C@H]1CC[C@H](CCN2CCC(Oc3ccc(F)cc3F)CC2)CC1)c1ccnc2ccccc12 [Example 24]
Response: 8

Query: // returns reported Ki for input O=C(N[C@H]1CC[C@H](CCN2CCC(Oc3ccc(F)cc3Cl)CC2)CC1)c1ccnc2ccccc12 [Example 11]
Response: 17

Query: // returns reported Ki for input CCC(=O)N[C@H]1CC[C@H](CCN2CCC(Oc3ccc(F)cc3Cl)CC2)CC1 [Example 18]
Response: 5
